Reported normalized growth by item:
- test: chemical genetic growth profiling, strain panel (AID 1159580);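 note: tested at 20 µM; growth read once vehicle control cultures reached saturation at 30 °C; 1 = growth at the plate median or of vehicle wells; lower values mean less growth of the strain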
- conditions-used: S. cerevisiae deletion strains, growth OD, locus YIL125W, strain kgd1, hits give low values
In all, about 5,500 compounds went through this assay and about 2,000 (36%) were called active. Another 18% or so got no clear call; they are omitted. This is one part of the list.
Answer with the value's number alone.

Examples from the recorded data:
[[record]]
molecule = "CN(C)c1nc(N)c(C(=O)N=C(N)N)nc1Cl"
recorded_value = 1

[[record]]
molecule = "COC(=O)[C@]1(C)CCC[C@]2(C)c3ccc(C(C)C)cc3C(=O)CC12 (some centres not stated)"
recorded_value = 0.996

[[record]]
molecule = "CCC/C=C1\\OC(=O)C2=C1CCC=C2"
recorded_value = 0.973

[[record]]
molecule = "CCCCC1C(=O)N(c2ccccc2)N(c2ccc(O)cc2)C1=O (configuration not stated)"
recorded_value = 0.985

[[record]]
molecule = "CC1=CC(=O)C2=C(C)CC[C@@H]3[C@H](OC(=O)[C@H]3C)[C@@H]12"
recorded_value = 0.986

[[record]]
molecule = "CN1C[C@H](C(=O)N[C@]2(C)O[C@@]3(O)[C@@H]4CCCN4C(=O)[C@H](Cc4ccccc4)N3C2=O)C[C@@H]2c3cccc4[nH]cc(c34)C[C@H]21"
recorded_value = 0.987

[[record]]
molecule = "CC(C)(O)[C@@H]1Cc2cc3ccc(=O)oc3cc2O1"
recorded_value = 1.02

[[record]]
molecule = "CC(=O)Oc1ccc2c(c1C(C)C)CCC1C(C)(C)CCC[C@]21C (some centres not stated)"
recorded_value = 1

[[record]]
molecule = "COc1c(C(C)C)oc2cc3oc(=O)ccc3cc12"
recorded_value = 0.971

[[record]]
molecule = "COc1cc(OC)c2ccc(=O)oc2c1"
recorded_value = 1


Can you share its normalized growth? I mean this molecule: NC(N)=NC(=O)c1nc(Cl)c(N2CCCCCC2)nc1N 1.01

* * *

Reported normalized growth by item:
- test: chemical genetic growth profiling, strain panel (AID 1159580)
- conditions-used: S. cerevisiae deletion strains, growth OD, locus YKL068W, hits give low values
Hit rate of the full screen: of about 5,500 compounds, about 2,000 (36%) were called active. Inconclusive results (about 18%) are left out. The list shows a part of the results.
Answer with the value's number alone.

Can you share its normalized growth? I mean this compound: C=C[C@H]1CN2CC[C@H]1C[C@@H]2[C@@H](OC(=O)OCC)c1ccnc2ccc(OC)cc12 1.02

Try O=c1c(O)c(-c2ccc(O)cc2O)oc2cc(O)cc(O)c12 next. 1.01

Try CC1(C)C(=O)C=C[C@@]2(C)C1C[C@@H](O)[C@]1(C)C2CC[C@@]2(C)[C@H](c3ccoc3)OC(=O)[C@H]3O[C@]321 (stereo partly drawn) next. 0.973

* * *

- test: chemical genetic growth profiling, strain panel (AID 1159580)
- conditions-used: S. cerevisiae deletion strains, growth OD, locus YJL187C, strain SWE1, hits give low values
Out of some 5,500 compounds screened, about 2,000 (36%) were called active. About 18% were inconclusive and are not listed. The list shows a part of the results.
Reported normalized growth by item:
Answer with the value's number alone.

Examples from the recorded data:
[[record]]
compound = "CCOC(=O)c1sc(SC(C)C)c2c1CCCC2=O"
recorded_value = 0.851

[[record]]
compound = "Cc1cc(C)c(CSCCNC(=O)Nc2ccc(F)cc2F)c(C)c1"
recorded_value = 1.03

[[record]]
compound = "COc1cc(OC)c2ccc(=O)oc2c1"
recorded_value = 0.97

[[record]]
compound = "OC1CC2CCCC(C1)N2Cc1ccccc1 (stereo unspecified)"
recorded_value = 1

[[record]]
compound = "COc1cc2occc2c2oc(=O)ccc12"
recorded_value = 1.02

[[record]]
compound = "O=c1c(O)c(-c2ccc(O)c(O)c2)oc2c(O[C@@H]3O[C@H](CO)[C@H](O)[C@@H](O)[C@H]3O)c(O)cc(O)c12"
recorded_value = 1.03

[[record]]
compound = "C/C(=N/NC(=S)Nc1ccc(C(C)C)cc1)c1ccco1"
recorded_value = 0.866

[[record]]
compound = "CCC1OC(=O)[C@H](C)C(=O)[C@H](C)[C@@H](OC2O[C@H](C)C[C@H](N(C)C)[C@H]2O)[C@](C)(OC)C2(CCCn3cnc(-c4cccnc4)c3)C[C@@H](C)C(=O)[C@H](C)[C@H]3N(C2)C(=O)O[C@]13C (stereo partly specified)"
recorded_value = 0.984


Can you share its normalized growth? I mean this compound: CC(C)c1c(O)ccc2c1CCC1C(C)(C)CCC[C@]21C (stereo partly specified) 0.403

Try NC(=O)c1ncn([C@@H]2O[C@H](CO)[C@@H](O)[C@H]2O)n1 next. 0.986

Try NC(=O)NCCCC(N)C(=O)O (stereo unspecified) next. 1

Try C[C@@H]1O[C@@H](OC[C@H]2OC(Oc3c(-c4ccc(O)c(O)c4)oc4cc(O)cc(O)c4c3=O)[C@H](O)[C@@H](O)[C@@H]2O)[C@H](O)[C@H](O)[C@H]1O (stereo partly specified) next. 0.999

Try COc1ccc(-c2cc(=O)c3c(O)cc(O[C@@H]4O[C@H](CO[C@H]5O[C@H](C)[C@@H](O)[C@H](O)[C@@H]5O)[C@@H](O)[C@H](O)[C@H]4O)cc3o2)cc1O next. 1.01

Try NC(=O)CN1CCCC1=O next. 0.982

Try Cn1[nH]c(=O)cc1C(=O)NN next. 0.998

Try CC[n+]1c(-c2ccccc2)c2cc(N)ccc2c2ccc(N)cc21 next. 0.995

Try COc1cc(/C=C(\C#N)C(N)=S)cc(OC)c1OC next. 0.942

* * *

- test: chemical genetic growth profiling, strain panel (AID 1159580);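 note: tested at 20 µM; growth read once vehicle control cultures reached saturation at 30 °C; 1 = growth at the plate median or of vehicle wells; lower values mean less growth of the strain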
- conditions-used: S. cerevisiae deletion strains, growth OD, locus YDL005C, strain med2, hits give low values
Out of some 5,500 compounds screened, about 2,000 (36%) were called active. About 18% were inconclusive and are not listed. The list shows a part of the results.
Label 1 when normalized growth is strictly below 1; otherwise label 0.

Worked examples follow.
[[record]]
compound = "Cc1cc(C2CCCCC2)n(O)c(=O)c1"
label_value = 1

[[record]]
compound = "COC(=O)[C@]1(C)CCC[C@]2(C)c3ccc(C(C)C)cc3C(=O)CC12 (stereo not given in full)"
label_value = 1

[[record]]
compound = "CCN(Cc1ccncc1)C(=O)C(CO)c1ccccc1 (stereo not given)"
label_value = 0


# next compound below
Item COC(=O)[C@@]1(C)CCC[C@]2(C)c3ccc(O)c(C(C)C)c3CCC12 (stereo not given in full) : normalized growth beneath 1, strictly? 1

* * *

- test: chemical genetic growth profiling, strain panel (AID 1159580);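 note: tested at 20 µM; growth read once vehicle control cultures reached saturation at 30 °C; 1 = growth at the plate median or of vehicle wells; lower values mean less growth of the strain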
- conditions-used: S. cerevisiae deletion strains, growth OD, locus YJL166W, strain qcr8, hits give low values
Hit rate of the full screen: of about 5,500 compounds, about 2,000 (36%) were called active. Not shown: some 18% with an inconclusive outcome. Some of the results follow. Where a SMILES comes first, the peptide text is derived from it.
assay-metric: normalized growth
Answer with the value's number alone.

[[record]]
molecule = "O=c1ccc2c(O)c3ccoc3cc2o1"
assay_metric = "normalized growth"
recorded_value = 0.963


Can you share its normalized growth? I mean this molecule: CCc1cc(C(N)=S)ccn1 1.04

Try O=c1c(O)c(-c2ccc(O)c(O)c2)oc2c(O)c(O)cc(O)c12 next. 0.995

Try COc1ccc2ccc(=O)oc2c1 next. 1.01

Try COC(=O)[C@H](Cc1ccccc1)NC(=O)[C@@H](N)CC(=O)O (H-Asp-Phe-OMe) next. 1.03

Try COC(=O)c1c(C)cc(OC)cc1O next. 0.972

* * *

Reported normalized growth by item:
- test: chemical genetic growth profiling, strain panel (AID 1159580);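 note: tested at 20 µM; growth read once vehicle control cultures reached saturation at 30 °C; 1 = growth at the plate median or of vehicle wells; lower values mean less growth of the strain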
- conditions-used: S. cerevisiae deletion strains, growth OD, locus YAL013W, strain DEP1, hits give low values
In all, about 5,500 compounds went through this assay and about 2,000 (36%) were called active. Inconclusive results (about 18%) are left out. Some of the results follow.
Answer with the value's number alone.

Examples from the recorded data:
[[record]]
molecule = "COc1cc(O)c2c(=O)c(O)c(-c3ccc(O)c(O)c3)oc2c1"
recorded_value = 0.998

[[record]]
molecule = "Brc1ccc(-c2ccn[nH]2)s1"
recorded_value = 0.978

[[record]]
molecule = "CCC(=O)c1c(O)cc(O)cc1O"
recorded_value = 1.01

[[record]]
molecule = "S=C=Nc1cccc(C2(N3CCCCC3)CCCCC2)c1"
recorded_value = 0.993

[[record]]
molecule = "COc1ccc2c(c1)CCC1C2CC[C@@]2(C)C1CC[C@@H]2NCCCCCCN1C(=O)C=CC1=O (stereo not given in full)"
recorded_value = 0.989


Can you share its normalized growth? I mean this molecule: COc1ccc2c(c1)CCC1C2CCC2(C)C1C[C@@H](O)C2O (stereo not given in full) 1

Try CCOC(=O)c1c(C)cc(OC)cc1O next. 1

Try COc1ccc(-c2oc3c(CC=C(C)C)c(O[C@@H]4O[C@H](CO)[C@@H](O)[C@H](O)[C@H]4O)cc(O)c3c(=O)c2O[C@@H]2O[C@@H](C)[C@H](O)[C@@H](O)[C@H]2O)cc1 next. 1.04

Try C[C@@H]1O[C@@H](OC[C@H]2OC(Oc3c(-c4ccc(OCCO)c(OCCO)c4)oc4cc(OCCO)cc(O)c4c3=O)[C@H](O)[C@@H](O)[C@@H]2O)[C@H](O)[C@H](O)[C@H]1O (stereo not given in full) next. 0.994

Try CNC(=O)Oc1cccc2c1OC(C)(C)O2 next. 1.01
